Source of measurements: paper PMC5844530

test: Pharmacokinetics in whole blood, cynomolgus monkeys; details: Cynomolgus monkey; 300 mg/kg PO; metabolite AUCall/Parent AUCall x 100
Reported % Parent AUCAll is given for each of the following molecules.
Only the number, expressed in %, is required.

COC(=O)CCNC(=O)[C@@H]1OP(=O)(N[C@@H](C)C(=O)OC)OCC1(C)C (stereo partly shown) = 19

Query string: Given the entry CC1(C)COP(=O)(O)O[C@H]1C(=O)NCCC(=O)O , report its measured % Parent AUCAll.
Result string: 9

Query string: Given the entry COC(=O)CCNC(=O)[C@@H]1OP(=O)(O)OCC1(C)C , report its measured % Parent AUCAll.
Result string: 132

Query string: Given the entry COC(=O)[C@H](C)NP(=O)(OCC(C)(C)[C@@H](O)C(=O)NCCC(=O)O)Oc1ccccc1 (stereo partly shown) , report its measured % Parent AUCAll.
Result string: 301
